- study system: active p38 alpha enzyme (Upstate Biotechnology) (Homo sapiens, UniProt Q16539)
- Construct: purchased Upstate Biotechnology
- Sequence (Q16539 whole entry): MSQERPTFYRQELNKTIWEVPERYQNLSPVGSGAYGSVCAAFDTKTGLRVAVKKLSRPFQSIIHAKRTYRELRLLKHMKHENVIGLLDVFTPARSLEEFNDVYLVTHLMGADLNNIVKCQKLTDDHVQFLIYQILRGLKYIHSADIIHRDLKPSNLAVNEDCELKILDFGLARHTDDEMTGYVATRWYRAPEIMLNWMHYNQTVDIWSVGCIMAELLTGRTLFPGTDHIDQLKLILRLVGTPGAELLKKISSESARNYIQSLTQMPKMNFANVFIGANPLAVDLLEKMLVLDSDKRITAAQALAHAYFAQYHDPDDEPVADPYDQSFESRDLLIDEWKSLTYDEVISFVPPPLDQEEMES
- assay overview: p38α biochemical assay (ATP turnover, luminescent detection, Cambrex PKlight)
- assay setup: p38α kinase; Table 1 Biological Activity
- Description: The p38α biochemical assay employed is based on measurement of total ATP turnover following enzyme incubation with substrate in the presence of ATP with the use of a luminescent detection reagent (Cambrex PKlight). […] The final volume was 7.5005 μL as prepared prepared from the addition of 5 ul of kinase reaction (p38 alpah+MapkapK2+ATP) with 0.0005 μL compound dissolved in DMSO, and 2.5 ul of the detection reagent. […] Assay is read using a Perkin Elmer Viewlux.
assay metric: IC50

Known IC50 results, listed for orientation:
{"molecule": "CC(C)NC(=O)c1csc(-c2oc(CN3CCC(O)(O)CC3)nc2-c2ccc(F)cc2)n1", "study system": "active p38 alpha enzyme (Upstate Biotechnology) (Homo sapiens, UniProt Q16539)", "IC50": "> 1 µM"}
{"molecule": "CC(C)NC(=O)c1csc(-c2c(-c3ccc(F)cc3)noc2CN(CCN(C)C)Cc2ccccc2)n1", "study system": "active p38 alpha enzyme (Upstate Biotechnology) (Homo sapiens, UniProt Q16539)", "IC50": "> 1 µM"}
{"molecule": "CC(C)NC(=O)c1csc(-c2oc(CN3CCCCC3CCO)nc2-c2ccc(F)cc2)n1 (stereo not shown)", "study system": "active p38 alpha enzyme (Upstate Biotechnology) (Homo sapiens, UniProt Q16539)", "IC50": "> 1 µM"}
{"molecule": "CC(C)NC(=O)c1csc(-c2oc(CN3CCN(c4ccccn4)CC3)nc2-c2ccc(F)cc2)n1", "study system": "active p38 alpha enzyme (Upstate Biotechnology) (Homo sapiens, UniProt Q16539)", "IC50": "> 1 µM"}
{"molecule": "O=C(NC1CC1)c1csc(-c2c(-c3ccc(F)cc3)n[nH]c2C2CCNCC2)n1", "study system": "active p38 alpha enzyme (Upstate Biotechnology) (Homo sapiens, UniProt Q16539)", "IC50": "≤ 1 µM"}
{"molecule": "CC(=O)Nc1ccc(NC(=O)c2csc(-c3sc(C)nc3-c3ccc(F)cc3)n2)cn1", "study system": "active p38 alpha enzyme (Upstate Biotechnology) (Homo sapiens, UniProt Q16539)", "IC50": "≤ 1 µM"}
{"molecule": "Cc1nc(-c2ccc(F)cc2)c(-c2nc(C(=O)NCCc3ccc4c(c3)OCO4)cs2)s1", "study system": "active p38 alpha enzyme (Upstate Biotechnology) (Homo sapiens, UniProt Q16539)", "IC50": "≤ 1 µM"}
{"molecule": "CCOC(=O)N1CCN(Cc2onc(-c3ccc(F)cc3)c2-c2nc(C(=O)NC(C)C)cs2)CC1", "study system": "active p38 alpha enzyme (Upstate Biotechnology) (Homo sapiens, UniProt Q16539)", "IC50": "> 1 µM"}
{"molecule": "CC(C)NC(=O)c1csc(-c2c(-c3ccc(F)cc3)noc2CN2CCN(CCN3CCOCC3)CC2)n1", "study system": "active p38 alpha enzyme (Upstate Biotechnology) (Homo sapiens, UniProt Q16539)", "IC50": "> 1 µM"}
{"molecule": "COc1ccccc1CNCc1onc(-c2ccc(F)cc2)c1-c1nc(C(=O)NC(C)C)cs1", "study system": "active p38 alpha enzyme (Upstate Biotechnology) (Homo sapiens, UniProt Q16539)", "IC50": "> 1 µM"}

stdin: Any idea what its IC50 is? The molecule is CC(C)NC(=O)c1csc(-c2c(-c3ccc(F)cc3)noc2CN(C)CCc2ccccn2)n1 [Example 1554]
stdout: ≤ 1 µM

stdin: Any idea what its IC50 is? The molecule is CC(C)NC(=O)c1csc(-c2c(-c3ccc(F)cc3)n[nH]c2C2CCN(C(=O)CC#N)CC2)n1
stdout: ≤ 1 µM

stdin: Any idea what its IC50 is? The molecule is CC(=O)Nc1ccc(NCc2onc(-c3ccc(F)cc3)c2-c2nc(C(=O)NC(C)C)cs2)cn1
stdout: > 1 µM

stdin: Any idea what its IC50 is? The molecule is Cc1nc(-c2ccc(F)cc2)c(-c2nc(C(=O)Nc3cccc(F)c3C)cs2)s1
stdout: > 1 µM
